Consider the following compounds and their measured viability at 48 h, 25 µM readings.
test: in vitro; details: human, hek293t cells
State the answer as a number, implicitly in %.

COMPOUND | viability at 48 h, 25 µM, %
CC(Cl)C(=O)N1C2CCC1CC(O)(Cc1ccc(F)cc1F)C2 (stereo not shown) | 60
N#CC(=Cc1cccs1)C(=O)Nc1cccc2ncccc12 | 84.3

// recorded viability at 48 h, 25 µM for N#CC(=Cc1cccc(Cl)c1Cl)C(=O)Nc1ccc(F)cc1 : 92.8

Entry Cn1c(=O)c(C(=O)CCl)c(N)n(Cc2ccccc2)c1=O — recorded viability at 48 h, 25 µM = 76.7

Quick note, viability at 48 h, 25 µM for COc1ccc(OC)c(-c2csc(NC(=O)CCl)n2)c1 landed at 1.27

Just so you know, measured viability at 48 h, 25 µM for COc1cc(CC2CN(C(=O)C(C)Cl)C2)cc(OC)c1 (stereo not shown) came out at 97.3

Consider Cc1cc(S(=O)(=O)N(C)C)cc(NC(=O)CCl)c1C . Its measured viability at 48 h, 25 µM is 1.33

Input CC(Cl)C(=O)NC1CCc2cnn(C(C)C)c2C1 (stereo not shown) . Output viability at 48 h, 25 µM: 107

====

assay: in vitro; conditions: human, hek293t cells
READOUT: viability at 48 h, 25 µM
// unit must come after the numeric part

Sample records with viability at 48 h, 25 µM:
MOLECULE | viability at 48 h, 25 µM
C=CC(=O)N1CCn2c(nnc2C2CCCC2)C1 [3-C09] | 29.4%
O=C(CCl)c1ccoc1 [10-O09, 2-chloro-1-(furan-3-yl)ethan-1-one] | 76.8%
CC(C)Oc1ccccc1C=C(C#N)C(=O)Nc1ccc(Cl)cc1 [9-L20] | 89.4%
COc1ccccc1C=CC=C(C#N)C(=O)Nc1ccccn1 [9-L17] | 91.4%
N#CC(=Cc1ccco1)C(=O)NC1CCN(c2ccc(F)cc2F)C1 (stereo not shown) [9-L09] | 111%

Lab note: measured viability at 48 h, 25 µM of C=CC(=O)NCc1ccc(C(=O)N2CCC(c3ccn[nH]3)CC2)cc1 [3-K08] was 95.2%

====

assay: in vitro; conditions: human, hek293t cells
READOUT: viability at 48 h, 25 µM (%)
Report only the number, with the unit % understood.

Observe how each entry below is paired with its result.
MOLECULE | viability at 48 h, 25 µM (%)
O=C(CCl)c1ccncc1F | 85
O=C(CCl)NCCCC1CCCCC1 [6-O05, 2-chloro-N-(3-cyclohexylpropyl)acetamide] | 45.7
C=CC(=O)N(C)Cc1c(C)nn(C)c1Cl | 86.1
O=C1C=CC(=O)N1c1ccccc1F | 90.3
C=CC(=O)NCCC(=O)N1CCC(C)(C)S(=O)(=O)CC1 | 41.2
O=C(CCl)c1c[nH]c2ccccc12 | 111
N#CC(=Cc1c(Cl)cccc1Cl)C(=O)NCc1ccco1 | 29.2
COc1ccc(N(C(=O)CCl)C2CCS(=O)(=O)C2)cc1 (stereo not shown) | 2.54

Sample CC(C)NC(=O)C(C#N)=Cc1ccc(OC(C)C)cc1 ; viability at 48 h, 25 µM observed: 64.9

The molecule listed as N#CC(=Cc1ccc2c(c1)OCCO2)C(=O)Nc1ccc(F)cc1 has a reported viability at 48 h, 25 µM of 114
